test: Solubility of the peptides in pH 7.4 buffer and in H2O; format: physicochemical; details: pH 7.4 buffer, pH 7.4, aqueous buffer, pH 7.4 buffer; read-out: pH 7.4 Buffer mg/ml (solubility)
Where a SMILES comes first, the peptide text is derived from it. [ ]: non-standard residue; d: D form. The star is where a group is joined. ξ: configuration not given here. Sta = CC(C)C[C@H](N)[C@@H](O)CC(=O)O; ξPhg = NC(C(=O)O)c1ccccc1; Boc = CC(C)(C)OC(=O)*
Measured parameter: solubility
Reply with the number, then its unit.

Challenge: # solubility lookup, item CC(C)C[C@H](NC(=O)C[C@H](O)[C@H](CC(C)C)NC(=O)[C@H](Cc1c[nH]cn1)NC(=O)[C@H](Cc1ccccc1)NC(=O)OC(C)(C)C)C(=O)NC(C(=O)O)c1ccccc1 (stereo partly shown) [Example 8] (Boc-FH[Sta]L[ξPhg]-OH)
Response given: 1.8 mg/mL

====

test: Partition coefficient; assay type: physicochemical
Where a SMILES comes first, the peptide text is derived from it. [ ]: non-standard residue; d: D form. The star is where a group is joined. ξ: configuration not given here. Sta = CC(C)C[C@H](N)[C@@H](O)CC(=O)O; ξPhg = NC(C(=O)O)c1ccccc1; Boc = CC(C)(C)OC(=O)*
Measured parameter: Partition Coefficient

CC(C)C[C@H](NC(=O)C[C@H](O)[C@H](CC(C)C)NC(=O)[C@H](Cc1c[nH]cn1)NC(=O)[C@H](Cc1ccccc1)NC(=O)OC(C)(C)C)C(=O)NC(C(=O)O)c1ccccc1 (some centres unmarked) [Example 8] (Boc-FH[Sta]L[ξPhg]-OH) : 16.5

Challenge: Please look up its Partition Coefficient: CC(C)C[C@H](NC(=O)C[C@H](O)[C@H](CC(C)C)NC(=O)[C@H](Cc1c[nH]cn1)NC(=O)[C@H](Cc1ccccc1)NC(=O)OC(C)(C)C)C(=O)NCCC(N)C(=O)O (single isomer, unassigned) [Example 5 (Isomer A)]
Response given: 2.1

====

Molecular target: human kidney renin (Homo sapiens, UniProt P00797)
Construct: human kidney renin purified as described in Bangham
Sequence (P00797 67-406): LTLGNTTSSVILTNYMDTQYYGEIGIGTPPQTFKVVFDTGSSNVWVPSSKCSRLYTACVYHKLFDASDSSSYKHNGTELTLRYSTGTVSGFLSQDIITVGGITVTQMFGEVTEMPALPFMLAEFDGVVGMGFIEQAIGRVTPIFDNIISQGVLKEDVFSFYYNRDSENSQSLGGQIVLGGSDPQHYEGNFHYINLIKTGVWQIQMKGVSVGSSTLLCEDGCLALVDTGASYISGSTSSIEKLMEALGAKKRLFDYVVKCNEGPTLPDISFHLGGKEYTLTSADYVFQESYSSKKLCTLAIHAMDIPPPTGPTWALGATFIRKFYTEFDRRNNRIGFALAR
Assay: Inhibition of purified human kidney renin
Conditions: dissociation constant of the inhibited enzyme-inhibitor complex
*1 amine or outer side, *2 acyl side, *3 side chain or, on linkers, in order; H or OH if unused. Where a SMILES comes first, the peptide text is derived from it. [ ]: non-standard residue; d: D form. The star is where a group is joined. ξ: configuration not given here. X1 = NCc1cccc(CC(N[*:1])C(=O)[*:2])c1; Sta = CC(C)C[C@H](N)[C@@H](O)CC(=O)O; X4 = NC(Cc1cccc(CN*)c1)C(=O)O; ξPhg = NC(C(=O)O)c1ccccc1; Boc = CC(C)(C)OC(=O)*
// log10(Ki) lookup, one value per entry
Form field - Quantity: Ki; Unit: nM; Scale: log10

Here is how some molecules turned out for log10(Ki).
CC(C)C[C@H](NC(=O)C[C@H](O)[C@H](CC(C)C)NC(=O)[C@H](Cc1c[nH]cn1)NC(=O)[C@H](Cc1ccccc1)NC(=O)OC(C)(C)C)C(=O)NC(C(=O)O)c1ccccc1 (some centres unmarked) [Example 8] (Boc-FH[Sta]L[ξPhg]-OH) : 3.00
CC(C)C[C@H](NC(=O)C[C@H](O)[C@H](CC(C)C)NC(=O)[C@H](Cc1c[nH]cn1)NC(=O)[C@H](Cc1ccccc1)NC(=O)OC(C)(C)C)C(=O)NCCC(N)C(=O)O (single isomer, unassigned) [Example 5 (Isomer B)] : 3.34
CC(C)C[C@H](NC(=O)C[C@H](O)[C@H](CC(C)C)NC(=O)[C@H](Cc1c[nH]cn1)NC(=O)[C@H](Cc1ccccc1)NC(=O)OC(C)(C)C)C(=O)NC(Cc1cccc(CN)c1)C(=O)O (some centres unmarked) [Example 4] (Boc-FH[Sta]L[X1]-OH) : 0.69
CC(C)C[C@H](NC(=O)C[C@H](O)[C@H](CC(C)C)NC(=O)[C@H](Cc1c[nH]cn1)NC(=O)[C@H](Cc1ccccc1)NC(=O)OC(C)(C)C)C(=O)NCCC(N)C(=O)O (single isomer, unassigned) [Example 5 (Isomer A)] : 0.38

Alright, here's another molecule for you.
Challenge: Bench note: what log10(Ki) did CC(C)C[C@H](NC(=O)C[C@H](O)[C@H](CC(C)C)NC(=O)[C@H](Cc1c[nH]cn1)NC(=O)[C@H](Cc1ccccc1)NC(=O)OC(C)(C)C)C(=O)NCc1cccc(CC(N)C(=O)O)c1 (stereo partly drawn) [Example 6] (Boc-FH[Sta]L-X4) show?
Response given: 1.08

====

assay: Solubility of the peptides in pH 7.4 buffer and in H2O; assay type: physicochemical; details: water, H2O mg/ml (solubility)
*1 amine or outer side, *2 acyl side, *3 side chain or, on linkers, in order; H or OH if unused. Where a SMILES comes first, the peptide text is derived from it. [ ]: non-standard residue; d: D form. The star is where a group is joined. NH(3-guanidinomethylbenzyl) = NC(N)=NCc1cccc(CN*)c1; NH(3-OCH2COOH-benzyl) = O=C(O)COc1cccc(CN*)c1; X1 = NCc1cccc(CC(N[*:1])C(=O)[*:2])c1; Sta = CC(C)C[C@H](N)[C@@H](O)CC(=O)O; X3 = [O-][n+]1ccc(CN*)cc1; Boc = CC(C)(C)OC(=O)*; X2 = NC(CN*)c1ccccn1
Measured parameter: log10 solubility (log10 of the value in µg/mL)
A value of 2 here means solubility of 100 in µg/mL, since values are log10.

In the examples that follow, each entry is paired with its recorded log10 solubility.
CC(C)C[C@H](NC(=O)C[C@H](O)[C@H](CC(C)C)NC(=O)[C@H](Cc1c[nH]cn1)NC(=O)[C@H](Cc1ccccc1)NC(=O)OC(C)(C)C)C(=O)NCc1cc[n+]([O-])cc1 [Example 7] (Boc-FH[Sta]L-X3) : 3.71
CC(C)C[C@H](NC(=O)C[C@H](O)[C@H](CC(C)C)NC(=O)[C@H](Cc1c[nH]cn1)NC(=O)[C@H](Cc1ccccc1)NC(=O)OC(C)(C)C)C(=O)NCc1cccc(CN=C(N)N)c1 [Example 3] (Boc-FH[Sta]L-{NH(3-guanidinomethylbenzyl)}) : 3.39
CC(C)C[C@H](NC(=O)C[C@H](O)[C@H](CC(C)C)NC(=O)[C@H](Cc1c[nH]cn1)NC(=O)[C@H](Cc1ccccc1)NC(=O)OC(C)(C)C)C(=O)NCC(N)c1ccccn1 (stereo partly drawn) [Example 2] (Boc-FH[Sta]L-X2) : 2.85
CC(C)C[C@H](NC(=O)C[C@H](O)[C@H](CC(C)C)NC(=O)[C@H](Cc1c[nH]cn1)NC(=O)[C@H](Cc1ccccc1)NC(=O)OC(C)(C)C)C(=O)NC(Cc1cccc(CN)c1)C(=O)O (stereo partly drawn) [Example 4] (Boc-FH[Sta]L[X1]-OH) : 2.52

--- query ---
Challenge: Item under review: CC(C)C[C@H](NC(=O)C[C@H](O)[C@H](CC(C)C)NC(=O)[C@H](Cc1c[nH]cn1)NC(=O)[C@H](Cc1ccccc1)NC(=O)OC(C)(C)C)C(=O)NCc1cccc(OCC(=O)O)c1 [Example 9] (Boc-FH[Sta]L-{NH(3-OCH2COOH-benzyl)}) . Reported log10 solubility?
Response given: 2.36

====

experiment: Partition coefficient; assay type: physicochemical
*1 amine or outer side, *2 acyl side, *3 side chain or, on linkers, in order; H or OH if unused. Where a SMILES comes first, the peptide text is derived from it. [ ]: non-standard residue; d: D form. The star is where a group is joined. NH(3-guanidinomethylbenzyl) = NC(N)=NCc1cccc(CN*)c1; X1 = NCc1cccc(CC(N[*:1])C(=O)[*:2])c1; Sta = CC(C)C[C@H](N)[C@@H](O)CC(=O)O; NHCH2CH2SO3H = O=S(=O)(O)CCN*; Boc = CC(C)(C)OC(=O)*
Measured parameter: Partition Coefficient
No unit in the answer, please; the number alone is enough.

Reference set (3 entries):
CC(C)C[C@H](NC(=O)C[C@H](O)[C@H](CC(C)C)NC(=O)[C@H](Cc1c[nH]cn1)NC(=O)[C@H](Cc1ccccc1)NC(=O)OC(C)(C)C)C(=O)NCc1cccc(CN=C(N)N)c1 [Example 3] (Boc-FH[Sta]L-{NH(3-guanidinomethylbenzyl)}) : 10.6
CC(C)C[C@H](NC(=O)C[C@H](O)[C@H](CC(C)C)NC(=O)[C@H](Cc1c[nH]cn1)NC(=O)[C@H](Cc1ccccc1)NC(=O)OC(C)(C)C)C(=O)NCCS(=O)(=O)O [Example 10] (Boc-FH[Sta]L-NHCH2CH2SO3H) : 4.34
CC(C)C[C@H](NC(=O)C[C@H](O)[C@H](CC(C)C)NC(=O)[C@H](Cc1c[nH]cn1)NC(=O)[C@H](Cc1ccccc1)NC(=O)OC(C)(C)C)C(=O)NC(Cc1cccc(CN)c1)C(=O)O (stereo partly drawn) [Example 4] (Boc-FH[Sta]L[X1]-OH) : 68.2

Kindly consider the entry below.
Challenge: Look at this molecule and give its reported Partition Coefficient. CC(C)C[C@H](NC(=O)C[C@H](O)[C@H](CC(C)C)NC(=O)[C@H](Cc1c[nH]cn1)NC(=O)[C@H](Cc1ccccc1)NC(=O)OC(C)(C)C)C(=O)NCCC(N)C(=O)O (single isomer, unassigned) [Example 5 (Isomer B)]
Response given: 10.7
